method-description: Drug metabolism in human liver microsomes assessed as disappearance of parent compound at 5 uM after 30 mins in presence of NADPH by UPLC-MS/MS analysis
test-readout: metabolised at 0.5 h, 5 µM (%)

Observe how each entry below is paired with its result.
smiles_text=C[C@H](Nc1ncnc(N)c1C#N)c1nn2ccc(C(F)(F)F)c2c(=O)n1-c1ccccc1 data_value=37
smiles_text=N#Cc1c(N)ncnc1N1CC(F)(F)C[C@H]1c1nn2cccc2c(=O)n1-c1ccccc1 data_value=35
smiles_text=C[C@H](Nc1ncnc(N)c1C#N)c1nn2ccc(F)c2c(=O)n1-c1ccccc1 data_value=13

(a) Cc1ccn2nc([C@H](C)Nc3ncnc(N)c3C#N)n(-c3ccccc3)c(=O)c12
(b) C[C@H](Nc1ncnc(N)c1C(F)(F)F)c1nn2cccc2c(=O)n1-c1ccccc1
Q. Could you please tell me which of these two has the higher metabolised at 0.5 h, 5 µM: a or b ? Lab note: record the label of whichever item you select.
A. a
(a: 80%, b: 43%)

Values from ChEMBL document CHEMBL3872285
